condition: 308.15 K; Liquid
quantityMeasured: vapor or sublimation pressure (kPa)

[
  {
    "compound": "C1CCOCC1 [tetrahydropyran]",
    "reported": 13.79
  },
  {
    "compound": "Nc1ccccc1",
    "reported": 0.12
  },
  {
    "compound": "CNc1ccccc1",
    "reported": 0.1067
  },
  {
    "compound": "Cc1ccccc1N",
    "reported": 0.0667
  }
]

---

# maps each entry to its vapor or sublimation pressure
condition: 298.15 K; Liquid; Closed cell (Static) method

[
  {
    "compound": "CNc1ccccc1",
    "vapor or sublimation pressure / kPa": 0.0667
  },
  {
    "compound": "C1CCOCC1 [tetrahydropyran]",
    "vapor or sublimation pressure / kPa": 9.533
  },
  {
    "compound": "Cc1ccccc1N",
    "vapor or sublimation pressure / kPa": 0.04
  },
  {
    "compound": "Nc1ccccc1",
    "vapor or sublimation pressure / kPa": 0.0933
  }
]

---

condition: 298.15 K; 101.33 kPa; Liquid; Pycnometric method
quantityMeasured: mass density (kg/m3)

[
  {
    "compound": "Nc1ccccc1",
    "reported": 1017.2
  },
  {
    "compound": "CNc1ccccc1",
    "reported": 982.4
  },
  {
    "compound": "Cc1ccccc1N",
    "reported": 994.2
  },
  {
    "compound": "C1CCOCC1 [tetrahydropyran]",
    "reported": 868.6
  }
]

Data provenance is the NIST ThermoML archive (doi:10.1021/je1005196).
